Assay Info: Inhibition of interleukin-23 binding to rat interleukin-23 receptor incubated for 2 hrs by competitive binding ELISA
pIC50: −log10 of the molar value.
List of pIC50 values.

Recorded results for 2 compounds are shown here.
cpd_smiles=CC(=O)N[C@H]1CCSC[C@@H](C(=O)N[C@@H](Cc2ccc(OCCN)cc2)C(=O)N[C@@H](Cc2ccc3ccccc3c2)C(=O)N[C@@](C)(CCCCN)C(=O)N[C@@H](CCC(=O)O)C(=O)N[C@@H](CC(N)=O)C(=O)NCC(N)=O)NC(=O)[C@H](CCC(N)=O)NC(=O)[C@H](Cc2c[nH]c3ccccc23)NC(=O)[C@H]([C@@H](C)O)NC(=O)[C@H](CCC(N)=O)NC1=O observed="> 8.00"
cpd_smiles=COc1ccc(C[C@H](NC(=O)[C@@H]2CSCC[C@H](NC(C)=O)C(=O)N[C@@H](CCC(N)=O)C(=O)N[C@@H]([C@@H](C)O)C(=O)N[C@@H](Cc3c[nH]c4ccccc34)C(=O)N[C@@H](CCC(N)=O)C(=O)N2)C(=O)N[C@@H](Cc2ccc3ccccc3c2)C(=O)N[C@H](CC(N)=O)C(=O)N[C@@H](CCCCNC(C)=O)C(=O)N[C@@H](CC(N)=O)C(=O)NCC(N)=O)cc1 observed="6.00 to 7.00"

Let us move to another entry and its pIC50.
pIC50 lookup needed for CC(=O)N[C@H](C(=O)N[C@@H](CCC(N)=O)C(=O)N[C@H](C(=O)N[C@@H](Cc1c[nH]c2ccccc12)C(=O)N[C@@H](CCC(N)=O)C(=O)N[C@H](C(=O)N[C@@H](Cc1ccc(O)cc1)C(=O)N[C@@H](Cc1ccc2ccccc2c1)C(=O)N[C@@](C)(CCCCN)C(=O)N[C@@H](CCC(=O)O)C(=O)N[C@@H](CC(N)=O)C(=O)NCC(N)=O)C(C)(C)S)[C@@H](C)O)C(C)(C)S , thanks.
6.00 to 7.00
